Protein target, amino acids: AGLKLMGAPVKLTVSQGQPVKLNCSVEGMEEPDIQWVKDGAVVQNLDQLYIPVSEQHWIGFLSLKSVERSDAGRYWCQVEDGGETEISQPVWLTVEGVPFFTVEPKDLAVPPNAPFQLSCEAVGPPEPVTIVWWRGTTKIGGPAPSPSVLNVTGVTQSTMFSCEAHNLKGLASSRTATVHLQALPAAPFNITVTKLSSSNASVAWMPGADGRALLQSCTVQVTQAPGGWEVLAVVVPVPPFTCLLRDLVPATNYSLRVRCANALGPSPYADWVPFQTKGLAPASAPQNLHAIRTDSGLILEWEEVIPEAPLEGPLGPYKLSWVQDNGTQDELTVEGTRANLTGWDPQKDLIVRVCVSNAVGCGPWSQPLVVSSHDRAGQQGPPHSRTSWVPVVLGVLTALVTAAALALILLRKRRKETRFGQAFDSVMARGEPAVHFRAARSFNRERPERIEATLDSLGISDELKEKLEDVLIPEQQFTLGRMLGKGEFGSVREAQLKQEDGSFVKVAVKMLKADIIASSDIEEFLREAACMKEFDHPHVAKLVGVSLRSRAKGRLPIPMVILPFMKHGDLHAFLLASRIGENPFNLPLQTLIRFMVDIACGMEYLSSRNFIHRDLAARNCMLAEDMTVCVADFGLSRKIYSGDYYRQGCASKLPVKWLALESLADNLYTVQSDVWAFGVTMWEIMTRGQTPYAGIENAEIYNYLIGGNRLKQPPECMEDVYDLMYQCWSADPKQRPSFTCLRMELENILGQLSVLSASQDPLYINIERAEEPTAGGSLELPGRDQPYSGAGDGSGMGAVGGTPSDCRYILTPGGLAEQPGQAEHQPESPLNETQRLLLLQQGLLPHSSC
EXPERIMENTAL_READOUT: pIC50
# pIC50: negative log10 of molar concentration; output just the value

*Q* So what does the record say about pIC50 for CCN(CC)CCN1CCc2[nH]c(/C=C3\C(=O)Nc4ccc(F)cc43)c(C)c2C1=O [Compound B, famitinib malate] ?
*A* 6.49

* * *

Target: Mer (Homo sapiens)
Sequence (Q12866 21-999): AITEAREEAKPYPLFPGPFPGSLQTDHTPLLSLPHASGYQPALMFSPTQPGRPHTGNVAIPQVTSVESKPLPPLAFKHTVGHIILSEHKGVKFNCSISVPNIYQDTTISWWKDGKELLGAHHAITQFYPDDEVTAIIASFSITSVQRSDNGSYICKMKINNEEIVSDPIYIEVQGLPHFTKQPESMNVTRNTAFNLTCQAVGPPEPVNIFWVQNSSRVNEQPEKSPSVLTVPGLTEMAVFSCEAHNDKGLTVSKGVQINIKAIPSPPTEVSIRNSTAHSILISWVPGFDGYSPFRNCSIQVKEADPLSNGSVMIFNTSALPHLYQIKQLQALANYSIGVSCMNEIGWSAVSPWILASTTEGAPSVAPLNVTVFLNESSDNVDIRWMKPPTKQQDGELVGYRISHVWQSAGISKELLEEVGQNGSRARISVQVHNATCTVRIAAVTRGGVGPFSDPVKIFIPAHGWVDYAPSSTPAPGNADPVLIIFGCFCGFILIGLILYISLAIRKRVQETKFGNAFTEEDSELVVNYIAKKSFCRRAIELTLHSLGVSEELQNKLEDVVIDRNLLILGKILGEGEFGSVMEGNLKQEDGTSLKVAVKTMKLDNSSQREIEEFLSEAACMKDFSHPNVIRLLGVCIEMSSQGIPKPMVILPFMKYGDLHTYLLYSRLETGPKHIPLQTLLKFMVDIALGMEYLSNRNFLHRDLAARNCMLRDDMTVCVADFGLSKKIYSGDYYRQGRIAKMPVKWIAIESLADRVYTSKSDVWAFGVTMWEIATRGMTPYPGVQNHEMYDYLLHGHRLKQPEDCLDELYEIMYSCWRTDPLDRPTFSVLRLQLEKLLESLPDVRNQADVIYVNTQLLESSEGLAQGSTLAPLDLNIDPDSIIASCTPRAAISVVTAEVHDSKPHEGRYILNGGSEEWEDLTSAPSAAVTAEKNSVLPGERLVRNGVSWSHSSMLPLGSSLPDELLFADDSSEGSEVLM
EXPERIMENTAL_READOUT: IC50

*Q* So what does the record say about IC50 for CCN(CC)CCN1CCc2[nH]c(/C=C3\C(=O)Nc4ccc(F)cc43)c(C)c2C1=O [Compound B, famitinib malate] ?
*A* 4.35 nM
